Biological target: T1, human tumor necrosis factor (TNF) (human, UniProt P01375 77-233)
T1 construct: The assays use 'human TNF'; The target of the phage display selection is printed only as 'TNF'; also called TNF-alpha
T1 sequence (P01375 77-233 limits assumed): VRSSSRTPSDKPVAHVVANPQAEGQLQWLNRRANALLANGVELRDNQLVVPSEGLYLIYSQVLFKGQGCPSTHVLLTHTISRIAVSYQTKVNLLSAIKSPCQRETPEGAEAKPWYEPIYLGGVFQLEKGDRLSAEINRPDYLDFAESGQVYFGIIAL
Assay: phage display selection and maturation
metric.name: binding result

>>> result("TN3-2-B1-c22-3 (designed binder, Monomeric tetranectin CTLD clone) ALQTVCLKGTKVHMKCFLAFTQTKTFHEASEDCISRGGTLSTPQTGSENDALYEYLRQSVGNEAEIWLGLNKRWSRYFWVDMTGTRIAYKNWKLPQHAHPEPSNWENCAVLSGAANGKWFGKRCRDQLPYICQFGIV")
"binds"
>>> result("TN3-2-B1-c22-2 (designed binder, Monomeric tetranectin CTLD clone) ALQTVCLKGTKVHMKCFLAFTQTKTFHEASEDCISRGGTLSTPQTGSENDALYEYLRQSVGNEAEIWLGLNKRWSRYFWVDMTGTRIAYKNWLLPQHANPNPSNWENCAVLSGAANGKWFGKRCRDQLPYICQFGIV")
"binds"
